target: EGFR L858R/T790M/C797S mutant (Homo sapiens (Human), UniProt P00533, C797S/L858R/T790M); assay: HotSpot radiometric kinase assay, EGFR L858R/T790M/C797S mutant; details: 10 μM ATP
Sequence (P00533 25-1210 T790M/C797S/L858R): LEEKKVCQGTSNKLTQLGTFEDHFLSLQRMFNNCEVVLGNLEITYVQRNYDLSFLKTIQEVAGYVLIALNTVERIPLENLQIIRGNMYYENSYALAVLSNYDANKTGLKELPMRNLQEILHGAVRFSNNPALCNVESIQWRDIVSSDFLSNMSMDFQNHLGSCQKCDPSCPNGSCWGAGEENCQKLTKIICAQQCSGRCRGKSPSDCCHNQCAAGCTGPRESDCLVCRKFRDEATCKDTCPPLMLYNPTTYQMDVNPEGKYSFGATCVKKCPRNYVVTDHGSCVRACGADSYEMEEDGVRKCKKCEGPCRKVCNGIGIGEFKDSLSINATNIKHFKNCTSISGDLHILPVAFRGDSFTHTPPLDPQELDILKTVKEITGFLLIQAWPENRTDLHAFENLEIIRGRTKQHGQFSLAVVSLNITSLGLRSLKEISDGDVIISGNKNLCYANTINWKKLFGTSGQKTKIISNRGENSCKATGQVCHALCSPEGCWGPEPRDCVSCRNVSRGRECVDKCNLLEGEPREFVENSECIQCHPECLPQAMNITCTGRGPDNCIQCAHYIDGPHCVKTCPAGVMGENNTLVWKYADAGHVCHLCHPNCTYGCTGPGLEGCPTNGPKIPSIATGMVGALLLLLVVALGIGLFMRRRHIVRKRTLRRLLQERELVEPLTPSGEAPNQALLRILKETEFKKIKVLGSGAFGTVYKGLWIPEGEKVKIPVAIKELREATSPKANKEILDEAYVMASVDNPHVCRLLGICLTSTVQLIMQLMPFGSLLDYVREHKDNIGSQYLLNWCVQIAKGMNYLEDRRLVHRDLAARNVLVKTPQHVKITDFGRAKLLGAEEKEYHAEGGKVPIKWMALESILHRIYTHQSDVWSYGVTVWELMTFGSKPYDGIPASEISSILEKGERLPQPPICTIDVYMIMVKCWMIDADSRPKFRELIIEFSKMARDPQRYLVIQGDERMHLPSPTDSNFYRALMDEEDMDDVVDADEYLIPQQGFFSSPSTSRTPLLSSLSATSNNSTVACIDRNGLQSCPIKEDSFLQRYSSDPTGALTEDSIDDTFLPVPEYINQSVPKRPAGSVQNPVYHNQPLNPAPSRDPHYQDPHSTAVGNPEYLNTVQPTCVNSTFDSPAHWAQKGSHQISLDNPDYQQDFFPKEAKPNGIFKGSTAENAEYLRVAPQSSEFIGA
Mark label 1 only for IC50 values smaller than 2 nM; exact matches and larger values are label 0.

Take a look at these entries with their results.
CCOc1nn(CCO)c2c1/C=C/c1n[nH]c3ccc(cc13)-c1cnn(C)c1O[C@@H]1CCCN(C2)C1 [Example 137] = label 1
CCN1Cc2c(c(C)nn2C)/C=C/c2n[nH]c3ccc(cc23)-c2cnn(C)c2O[C@@H](C)C1 [Example 165] = label 1
CCOc1nn(C)c2c1/C=C/c1n[nH]c3ccc(cc13)-c1cnn(C)c1OC1CN(C2)C1 [Example 238] = label 0
Cc1nn(CCO)c2c1/C=C/c1n[nH]c3ccc(cc13)-c1cnn(C)c1O[C@@H](C)CN(C)C2 [Example 61] = label 1
CCc1nn(C)c2c1/C=C/c1n[nH]c3ccc(cc13)-c1cnn(C)c1CN(C)CCO2 [Example 110] = label 0
C[C@H]1CN(C)Cc2c(c(OCC#N)nn2C)/C=C/c2n[nH]c3ccc(cc23)-c2cnn(C)c2O1 [Example 163] = label 1
Cn1ncc2c1OCCN1CC[C@@H](Oc3ccc(C(C)(C)O)cc3/C=C/c3n[nH]c4ccc-2cc34)C1=O [Example 135] = label 0
Cc1nn(C)c2c1/C=C/c1n[nH]c3ccc(cc13)-c1cnn(C)c1CN(C)C[C@@H](C)O2 (single isomer, unassigned) [Example 96] = label 0

Query: Check if IC50 falls below 2 nM for CN1CCC(c2ccc3c(c2)O[C@@H]2CCN(CCOc4c(cnn4C)-c4ccc5[nH]nc(c5c4)/C=C/3)C2=O)CC1 [Example 112] .
Response: label 1

Query: Check if IC50 falls below 2 nM for CCOc1nn(C)c2c1/C=C/c1n[nH]c3ccc(cc13)-c1cnn(C)c1O[C@@H](C)CN(C(C)C)C2 [Example 156] .
Response: label 1

Query: Check if IC50 falls below 2 nM for CCOc1nn(CCO)c2c1/C=C/c1n[nH]c3ccc(cc13)-c1cnn(CC)c1O[C@@H](C)CN(C)C2 [Example 168] .
Response: label 0

Query: Check if IC50 falls below 2 nM for CCOc1nn(C)c2c1/C=C/c1n[nH]c3ccc(cc13)-c1cnn(C)c1O[C@@H]1CCN(C2)C1 [Example 236] .
Response: label 1

Query: Check if IC50 falls below 2 nM for CCOc1nn(CCO)c2c1/C=C/c1n[nH]c3ccc(cc13)-c1c(C)nn(C)c1O[C@@H](C)CN(C(C)C)C2 [Example 142] .
Response: label 1
